# System: E18 rat cortical neuron-glia co-culture
# procedure-details: myelination (MBP fiber length per Olig2+ nucleus), % of 1 µM DAPT response (DMSO = 0) (% of DAPT); higher = more myelination, active = 50 or more
# study-conditions: 1 µM; treatment time: 8 days (DIV5-DIV13)
The threshold is inclusive: myelination of exactly -10 counts as T; values below receive F.

Consider the following illustrative entries.
COc1cccc(C2(O)CCCCC2CN(C)C)c1 (stereo not given) = F
Oc1cc(Cl)ccc1Oc1ccc(Cl)cc1Cl = T
Oc1ccc2c3c1O[C@H]1c4[nH]c5ccccc5c4C[C@@]4(O)[C@@H](C2)N(CC2CC2)CC[C@]314 = F

Is it the case that NCCc1ccccn1 has myelination reaching or exceeding -10? T

Is it the case that COC(=O)N1CCN(C(=O)Cc2ccc(Cl)c(Cl)c2)C(CN2CCCC2)C1 (stereo not given) has myelination reaching or exceeding -10? F

----------
# Tested on: E18 rat cortical neuron-glia co-culture
# procedure-details: fiber score / MBP score (myelination specific beyond OL differentiation) (ratio); higher = more myelination-specific MBP alignment
# study-conditions: 1 µM; treatment time: 8 days (DIV5-DIV13)
Listed next: entries and their corresponding fiber score / MBP score.
Please give the numeric answer without any surrounding text.

Here are 7 compounds together with their reported answers.
COC(=O)N1CCN(C(=O)Cc2ccc(Cl)c(Cl)c2)C(CN2CCCC2)C1 (stereo not drawn) = 0.594
CS(=O)(=O)Nc1ccc(Cc2noc(-c3ccc4[nH]cc(CCN)c4c3)n2)cc1 = 0.563
CC(O)(CS(=O)(=O)c1ccc(F)cc1)C(=O)Nc1ccc(C#N)c(C(F)(F)F)c1 (stereo not drawn) [Bicalutamide] = 0.676
CC(C)(O)[C@@H]1[C@H]2OC(=O)[C@@H]1[C@]1(O)C[C@H]3O[C@]34C(=O)O[C@H]2[C@]14C = 0.632
C[C@]12CCC(=O)C[C@@H]1CC[C@@H]1[C@@H]2CC[C@@]2(C)[C@H]1CC[C@]2(C)O = 0.746
C[C@]12CC[C@H](O)CC1=CC[C@@H]1[C@@H]2CC[C@]2(C)C(=O)CC[C@@H]12 [Dehydroepiandrosterone] = 1.25
CN1CC[C@@H](c2ccc(F)cc2)[C@H](COc2ccc3c(c2)OCO3)C1 = 0.423

For the next question, use this compound.
Any idea what fiber score / MBP score came out for O=C1CN=C(c2ccccc2)c2cc([N+](=O)[O-])ccc2N1 on E18 rat cortical neuron-glia co-culture? 0.887

----------
# System: E18 rat cortical neuron-glia co-culture
# procedure-details: myelination (MBP fiber length per Olig2+ nucleus), % of 1 µM DAPT response (DMSO = 0) (% of DAPT); higher = more myelination, active = 50 or more
# study-conditions: 1 µM; treatment time: 8 days (DIV5-DIV13)
Where a name gives a salt, the structure may show the parent alone.
assay-readout: myelination
Please give the numeric answer without any surrounding text.

CC(=O)O[C@H]1C[C@@H]2CC[C@@H]3[C@H](CC[C@@]4(C)[C@H]3C[C@H]([N+]3(C)CCCCC3)[C@@H]4OC(C)=O)[C@@]2(C)C[C@@H]1[N+]1(C)CCCCC1 = -11
CN1CC[C@]23CCCC[C@H]2[C@H]1Cc1ccc(O)cc13 = -27.6
CCN(C(C)=O)c1cccc(-c2ccnc3c(C#N)cnn23)c1 = -13.6
C[C@H]1CCC[C@H](O)CCCCCc2cc(O)cc(O)c2C(=O)O1 = -13.7
O=C(O)C(Cl)Cl = -10.2
CC[C@]1(O)CC[C@H]2[C@@H]3CCC4=CCCC[C@@H]4[C@H]3CC[C@@]21C = -13.8

For the molecule CC(C)c1cccc(C(C)C)c1O , what myelination is on record? -3.16

For the molecule CCCN1C[C@H](CSC)C[C@@H]2c3cccc4[nH]cc(c34)C[C@H]21 [Pergolide] , what myelination is on record? -19.3

For the molecule FC(F)(F)c1cccc(N2CCNCC2)c1 [1-(3-trifluoromethylphenyl)piperazine hydrochloride (TFMPP)] , what myelination is on record? -32.2

For the molecule CCC1(c2ccc(N)cc2)CCC(=O)NC1=O (stereo not given) [Aminoglutethimide] , what myelination is on record? -5.42

For the molecule COc1ccc2[nH]cc(C3=CCNCC3)c2c1 , what myelination is on record? -14.7
